Biological target: T1, HCV Core1-169 recombinant antigen (hepatitis C virus (HCV-1), UniProt P26664 1-169)
T1 sequence: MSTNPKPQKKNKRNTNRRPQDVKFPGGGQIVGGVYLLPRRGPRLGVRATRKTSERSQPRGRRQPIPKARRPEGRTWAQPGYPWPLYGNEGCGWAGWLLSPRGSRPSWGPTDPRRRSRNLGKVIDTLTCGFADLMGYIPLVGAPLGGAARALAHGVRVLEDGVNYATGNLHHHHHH
Assay: sandwich EIA, 25 ng/ml core1-169; capture mAb 208B-395-334
Labelling field: enter yes (1) if recorded OD492 nm is less than 0.3 OD492. Enter no (0) if it equals or exceeds that cut-off.

Does 208A-207-271 monoclonal antibody (antibody, V domains shown) VH: QGQLQQPGAEFVKPGASLKLSCRASGYTFTSYWIHWVKQRPGQGLEWIGEIDPSDSYINQNQKFRGKATLTVDKSSSTAYMELSGLTSEDSAVYYCARHYYGVLDSWGQGTTLTVSS VL: DIVLTQSPATLSVTPGDRVSLSCRASQRIYNYLHWYQQKSHESPRLLTKYASQSISGIPSRFSGSGSGTDFILTINSVETEDFGMYFCQQSNSWPLTFGAGTKLELRR have OD492 nm strictly under 0.3 OD492?
no (0)

Does 208B-612-226 monoclonal antibody (antibody, V domains shown) VH: EVQLQQSGPELVKPGASVKMSCKASGYRFTSYVMHWVRQKPGQGLEWIGYIDPHNDDTKYSEKFRGKATLTSDKSSTTAYMELSSLTSEDSAVYYCVRYSYDRDYSPMDYWGQGTSVTVSS VL: QIVLTQSPTLMSASPGEKVTMTCSASSTVTYIYWYQQKPGSSPRLWMYDTFNLVSGVPARFSGSRSGTSYFLTISSMEGEDAATYYCQQYSDSPYTFGGGTKLEIKR have OD492 nm strictly under 0.3 OD492?
no (0)

Does HCV 208A-692 monoclonal antibody (antibody, V domains shown) VH: QGQMQQSGAELAKPGASVKLSCKTSGFTFSSSYISWLKQKPGQSLEWIAWIFAGTGNTNYNQKFTDKAQLTVDTSSSTAYMQLSSLTTEDSAIYYCAISGTGFTYWGQGTLVTVSA VL: EVLMTQSPLSLPVSLGDQASISCRSSQSLEHSNGNTYLEWFLQRPGQPPKLLIYKVSSRFSGVPDRFSGSGSGTDFTLKISRVEAEDLGVYYCFQGSHVPFTFGSGTKLAIKR have OD492 nm strictly under 0.3 OD492?
no (0)

Does 208B-395-334 monoclonal antibody (antibody, V domains shown) VH: QVQLQQSGAGLAKPGASVKMSCKASGYTFTANKMHWTKQRPGQGLEWIGYIDPSSGYTQYNHKIQDKATLTADTSSSTAYMQLSSLTFEDSAVYYCTNFAYWGQGTLVTVSA VL: DIVLTQSPATLSVTPGDRVSLSCRASQRIYNYLHWYQQKSHESPRLLIKYASQSISGIPSRFSGSGSGTDFILTINSVETEDFGMYFCQQSNSWPLTFGAGTKLELRR have OD492 nm strictly under 0.3 OD492?
yes (1)

Does HCV 208A-293 monoclonal antibody (antibody, V domains shown) VH: EVQLQQSGPELVKPGASVKISCKASGFTFTEYAMHWMKQSHGKSLEWIGGINPTNGDAIYNQKFKDKAKLTVDRSSSTAYMELRSLTSDDSALFYCARRELDYFPSWGQGTTLTVSS VL: DIVLTQSPASLIVSLGQRATISCRASQSVSTSRFSYVHWIQQKPGQPPKLLIKYASNLESGVPVRFSGSGSGTDFILNIHPVEEEDTATYFCQHSWEFPFTFGSGTKLEIKR have OD492 nm strictly under 0.3 OD492?
no (0)

Does HCV 208A-557 monoclonal antibody (antibody, V domains shown) VH: QGQMQQSGAELVKPGASVKLSCKTSGFTFSSSYISWLKQKPGQSLEWIAWIYAGTGNTNYNQKFTDKAQLTVDTSSSTAYMQLSSLTTEDSAIYYCAISGTGFTYWGQGTLVTVSA VL: DIALTQSPASLAVSLGQRATISCRASQSVSTSRYSYMHWYQQKPGQPPELLIKYASNLESGVPARFSGSGSGTDFTLNIHPVGEEDTATYYCQHSWDFPFTFGSGTKLEIKR have OD492 nm strictly under 0.3 OD492?
yes (1)

Does HCV 208B-1096 monoclonal antibody (antibody, V domains shown) VH: QVQLQQSGAGLAKPGASVKMSCKASGYTFTANKMHWAKQRPGQGLEWIGYIDPSSGYTEYNHKIQYKATLTADTSSSTAYMQLSTLTFEDSAVYYCTNFAYWGQGTLVTVSA VL: DIVMTQTPLTLSVTIGQPASISCKSSQSLLFTNGKTYLNWFLQRPGQSPKRLIYLLSKLDSGVPDRFSGSGSGTDFTLKISRVEAEDLGVYYCLQSTYFPLTFGAGTKLELKR have OD492 nm strictly under 0.3 OD492?
yes (1)
